This listing pairs sequences with measured RUNX1 binding intensity.
# Target Or Test System: RUNX1 (UniProt Q01196)
# Sequence (Q01196 whole entry): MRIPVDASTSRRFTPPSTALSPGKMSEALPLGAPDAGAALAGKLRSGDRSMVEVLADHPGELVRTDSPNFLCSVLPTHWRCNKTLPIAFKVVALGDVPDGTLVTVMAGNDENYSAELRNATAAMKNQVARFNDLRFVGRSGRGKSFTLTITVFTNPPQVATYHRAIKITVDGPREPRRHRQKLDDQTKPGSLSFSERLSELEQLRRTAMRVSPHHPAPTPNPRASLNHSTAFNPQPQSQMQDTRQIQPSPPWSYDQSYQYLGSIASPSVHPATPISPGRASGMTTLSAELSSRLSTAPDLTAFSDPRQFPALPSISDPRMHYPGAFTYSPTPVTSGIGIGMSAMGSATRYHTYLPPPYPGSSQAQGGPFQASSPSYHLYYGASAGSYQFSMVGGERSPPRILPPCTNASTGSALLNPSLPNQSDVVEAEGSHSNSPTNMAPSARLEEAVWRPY
# Experimental Details: RUNX1 binding intensity (PBM fluorescence), RUNX1 alone (arbitrary fluorescence units); higher = stronger binding
# Cond: RUNX1 concentration 2 nM; ETS1 concentration 0 nM
Endpoint Name: RUNX1 binding intensity

| Macromolecule Sequence | Endpoint Name | Readout Value |
| --- | --- | --- |
| TCGTGAAAAAGGAAGTGGATAAAGTGGTTACGGCAA | RUNX1 binding intensity | 792 |
| CCCCTACTTCCCTTTTTGCTGGGCCGCAGTTTCGGT | RUNX1 binding intensity | 1490 |
| TTTCAAAACCCGGAAATGACCGCCAGGCTGGCATCA | RUNX1 binding intensity | 859 |
| GCCCACTTCCTGCCGTAAGAGAAAACCACTAACACA | RUNX1 binding intensity | 1970 |
| TTTGTGCCCCAACTTCCTCTGTGGCTTTTGGGTGGG | RUNX1 binding intensity | 898 |
| AATCGCGCAGTTCCGCAGCTGCCGCCCCACAACCGT | RUNX1 binding intensity | 863 |

---

This listing pairs sequences with measured RUNX1 binding intensity.
# Target Or Test System: RUNX1 (UniProt Q01196)
# Experimental Details: RUNX1 binding intensity (PBM fluorescence) in presence of ETS1, normalised to RUNX1-only experiment (arbitrary fluorescence units); higher = stronger binding
# Cond: RUNX1 concentration 2 nM; ETS1 concentration 25 nM
Endpoint Name: RUNX1 binding intensity

| Macromolecule Sequence | Target Or Test System | Readout Value |
| --- | --- | --- |
| GACGGGAGCACCGGAAGCGGTCTTTCCCCGAGCGGA | RUNX1 (UniProt Q01196) | 2370 |
| GGCCCCTGCTTCCGGGTGTGACGCGAACCGCGGGCA | RUNX1 (UniProt Q01196) | 1400 |
| ATGAGCTATTTCCTGCCTTGTGGTCAGAGCCAGACT | RUNX1 (UniProt Q01196) | 4330 |
| CGGGGACCACTGTCAGGATGTGGTCACTGGAGTCAC | RUNX1 (UniProt Q01196) | 1420 |
| GCCCAGGCAGGAAGCCAGGCGCCCACAGGTTGGCAG | RUNX1 (UniProt Q01196) | 923 |
| GCGGAGGGAAGCGGAAATACTTGCGGTGGGGGCGAC | RUNX1 (UniProt Q01196) | 2210 |
| ATCTCCACATCCTCCCCATCGACCGCATGGTTTACC | RUNX1 (UniProt Q01196) | 3450 |
| TGCACCCGCCACTTCCGCATCGAACCGCCGCTTCAA | RUNX1 (UniProt Q01196) | 3470 |
| AAAGAGGAAATCACATACCCGAAAACCACATGCACA | RUNX1 (UniProt Q01196) | 1200 |
| AGTCAAACAGGATGTGGCTGGGGAGGCGGTTGTCAC | RUNX1 (UniProt Q01196) | 2040 |
| TAGCATGTGAGCTTCCTGTGGGTTTGTGCAGCCCCA | RUNX1 (UniProt Q01196) | 1440 |
| GTGAATGAGGGGGAAGGAAGTGGTTTGGAAAAATAC | RUNX1 (UniProt Q01196) | 962 |
